- Test system: RXF 393
- measurementNotes: NCI tumour cell line growth inhibition, 48 h
Activity calls are given as the source filed them. Rule as the data show it: active = GI50 up to about 1.1 µM and inactive = higher.
Your reply should match one of these outcome classes. active, inactive

Reference set (5 entries):
INSERT INTO measurements (molecule, measurementtarget, category) VALUES
  ('CC(=O)OC1CCC2(C)C(CCC3C2CCC2(C)C(c4ccc(=O)oc4)C(OC(C)=O)CC32O)C1 (stereo not given)', 'RXF 393', 'active'),
  ('COC(=O)/C(=N\NC(C)(C)C)C(C(=O)OC)C(=O)C(=O)Nc1cc(Cl)ccc1Cl (stereo not given)', 'RXF 393', 'inactive'),
  ('CC(=O)OC1C[C@@H](C)C2(C[C@H](O)c3ccoc3)C(=O)OC[C@]13C2CCC(O)C31CO1 (stereo not given in full)', 'RXF 393', 'inactive'),
  ('O=C1C=CC(=C(c2ccc(O)cc2)c2ccc(O)cc2)C=C1 [AURIN]', 'RXF 393', 'inactive'),
  ('Cn1c(Sc2ccc(-c3cccnc3)n2C)ccc1-c1cccnc1', 'RXF 393', 'inactive');

Incoming: # outcome recorded in this test, key = `O=C(c1ccccc1)[C@H]1Nc2ccc(Cl)cc2[C@H]2CCC[C@@H]12`
Outgoing: inactive

Incoming: Per the records of this test, what outcome belongs to O=C1CCC2(c3ccc(Cl)cc3)Nc3cc(Cl)ccc3N12 (stereo not given) ?
Outgoing: inactive

Incoming: Tell me the recorded outcome of this test for `CCSc1nc(-c2cccs2)nc2ccc(I)cc12` .
Outgoing: inactive

Incoming: Hi team, can someone confirm the assay call for CCOC(=O)NC(Nc1ncccn1)(C(=O)OCC)C(F)(F)F (stereo not given) ?
Outgoing: inactive

Incoming: Write down the call the test reported for this molecule. Item: `CN(C)Cc1cc(C(C)(C)C)cc(CN(C)C)c1O`
Outgoing: inactive
